# System: HT-29
# ASSAY: SRB colorimetric cell growth inhibition assay, HT-29
# Assay type: cell-based
# MEASUREMENT_CONDITIONS: Homo sapiens, HT-29, HT-29; total growth inhibition (cytostatic effect); read-out: TGI HT-29
Recorded IC (TGI) values for a group of molecules are listed next.
OUTCOME_MEASURE: IC (TGI)

TEST_SMILES	OUTCOME_MEASURE	OBSERVED_VALUE
C=CCOC(=O)N[C@@H](C)C(=O)Oc1ccc(-c2c3c4cc(OC)c(OC(=O)[C@H](C)NC(=O)OCC=C)cc4oc(=O)c3n3ccc4cc(OC(=O)[C@H](C)NC(=O)OCC=C)c(OC)cc4c23)cc1OC	IC (TGI)	10.4 µM
COc1cc2c(cc1OC)-c1c(-c3ccc(OC(=O)[C@H](C)NC(=O)OC(C)(C)C)c(OC)c3)c3c4cc(OC)c(OC(=O)[C@H](C)NC(=O)OC(C)(C)C)cc4oc(=O)c3n1CC2	IC (TGI)	11.7 µM
COc1cc(-c2c3n(c4c(=O)oc5cc(OC(=O)CCc6ccccc6)c(OC)cc5c24)CCc2cc(OC(=O)CCc4ccccc4)c(OC)cc2-3)ccc1OC(=O)CCc1ccccc1	IC (TGI)	0.175 µM

* * *

# Tested on: HT-29
# ASSAY: SRB colorimetric cell growth inhibition assay, HT-29
# Assay type: cell-based
# MEASUREMENT_CONDITIONS: Homo sapiens, HT-29, HT-29; GI=growth inhibition; read-out: GI50 HT-29
Recorded GI50 values for a group of compounds are listed next.

COMPOUND	UNITS	GI50
COc1cc2ccn3c(c(-c4ccc(OC(=O)[C@H](C)NC(=O)OC(C)(C)C)c(OC)c4)c4c5cc(OC)c(OC(=O)[C@H](C)NC(=O)OC(C)(C)C)cc5oc(=O)c43)c2cc1OC [Compound 77]	µM	11.7
COc1cc(-c2c3c4cc(OC)c(OC(=O)[C@@H](N)C(C)C)cc4oc(=O)c3n3ccc4cc(OC(=O)[C@@H](N)C(C)C)c(OC)cc4c23)ccc1OC(=O)[C@@H](N)C(C)C [Compound 195]	µM	2.15
COc1cc(-c2c3c4cc(OC)c(OC(=O)CCC5CCCCC5)cc4oc(=O)c3n3ccc4cc(OC(=O)CCC5CCCCC5)c(OC)cc4c23)ccc1OC(=O)CCC1CCCCC1 [Compound 12]	µM	0.0811
COc1cc2c(cc1OC)-c1c(-c3ccc(OC(=O)[C@H](C)NC(=O)OC(C)(C)C)c(OC)c3)c3c4cc(OC)c(OC(=O)[C@H](C)NC(=O)OC(C)(C)C)cc4oc(=O)c3n1CC2 [Compound 21]	µM	0.512
COc1cc(-c2c3c4cc(OC)c(OC(=O)[C@@H](N)CO)cc4oc(=O)c3n3ccc4c(OC(=O)[C@@H](N)CO)c(OC)c(OC)cc4c23)ccc1OC(=O)[C@@H](N)CO [Compound 9]	µM	1.61
COc1cc(-c2c3c4cc(OC)c(OC(=O)[C@H](C)NC(=O)OC(C)(C)C)cc4oc(=O)c3n3ccc4cc(OC(=O)[C@H](C)NC(=O)OC(C)(C)C)c(OC)cc4c23)ccc1OC(=O)[C@H](C)NC(=O)OC(C)(C)C [Compound 41]	µM	3.24
COc1cc(-c2c3c4cc(OC)c(O)cc4oc(=O)c3n3ccc4cc(OC)c(OC)cc4c23)ccc1O [Compound 26]	µM	9.17
COc1cc2c(cc1OC)-c1c(-c3ccc(OC(=O)[C@H](Cc4ccccc4)NC(=O)OC(C)(C)C)c(OC)c3)c3c4cc(OC)c(OC(=O)[C@H](Cc5ccccc5)NC(=O)OC(C)(C)C)cc4oc(=O)c3n1CC2 [Compound 84]	µM	2.34
COc1cc(-c2c3n(c4c(=O)oc5cc(N)c(OC)cc5c24)CCc2cc(OC)c(OC)cc2-3)ccc1N [Compound 57]	µM	3.49
CCCCCCCC(=O)Oc1ccc(-c2c3n(c4c(=O)oc5cc(OC(=O)CCCCCCC)c(OC)cc5c24)CCc2cc(OC(=O)CCCCCCC)c(OC)cc2-3)cc1OC [Compound 28]	µM	0.111
COc1cc(-c2c3n(c4c(=O)oc5cc(OC(=O)[C@H](CO)NC(=O)OC(C)(C)C)c(OC)cc5c24)CCc2c-3cc(OC)c(OC)c2OC(=O)[C@H](CO)NC(=O)OC(C)(C)C)ccc1OC(=O)[C@H](CO)NC(=O)OC(C)(C)C [Compound 60]	µM	2.42
COc1cc(-c2c3c4cc(OC)c(OC(C)C)cc4oc(=O)c3n3ccc4c(OC(C)C)c(OC)c(OC)c(COS(C)(=O)=O)c4c23)ccc1OC(C)C [Compound 101]	µM	13.1
COc1cc(-c2c3c4cc(OC)c(O)cc4oc(=O)c3n3ccc4c(N)cccc4c23)ccc1O [Compound 182]	µM	21.3
COc1cc(-c2c3n(c4c(=O)oc5cc(OC(=O)[C@H](C)N)c(OC)cc5c24)CCc2cc(OC(=O)[C@H](C)N)c(OC)cc2-3)ccc1OC(=O)[C@H](C)N [Compound 42]	µM	3.91
COc1cc2ccn3c(c(-c4ccc(OS(=O)(=O)C(F)(F)F)c(OC)c4)c4c5cc(OC)c(OS(=O)(=O)C(F)(F)F)cc5oc(=O)c43)c2cc1OC [Compound 126]	µM	3
COc1cc2ccn3c(c(-c4ccc(OC(=O)[C@H](C)N)c(OC)c4)c4c5cc(OC)c(OC(=O)[C@H](C)N)cc5oc(=O)c43)c2cc1OC [Compound 20]	µM	3.58
COc1cc2c(cc1O)oc(=O)c1c2c(-c2cccc([N+](=O)[O-])c2)c2c3cc(OC)c(O)cc3ccn21 [Compound 221]	µM	20.1
COc1cc(-c2c3c4cc(OC)c(OC(=O)[C@@H](N)CC(C)C)cc4oc(=O)c3n3ccc4cc(OC(=O)[C@@H](N)CC(C)C)c(OC)cc4c23)ccc1OC(=O)[C@@H](N)CC(C)C [Compound 39]	µM	3.04
COc1cc(-c2c3c4cc(OC)c(OC(=O)C[C@H](N)C(C)C)cc4oc(=O)c3n3ccc4cc(OC(=O)C[C@H](N)C(C)C)c(OC)cc4c23)ccc1OC(=O)C[C@H](N)C(C)C [Compound 206]	µM	1.32
COc1cc(-c2c3c4cc(OC)c(OC(=O)[C@H](C)NC(=O)OC(C)(C)C)cc4oc(=O)c3n3ccc4c(OC(=O)[C@H](C)NC(=O)OC(C)(C)C)c(OC)c(OC)cc4c23)ccc1OC(=O)[C@H](C)NC(=O)OC(C)(C)C [Compound 97]	µM	9.59

* * *

# Tested on: SKOV-3
# ASSAY: SRB colorimetric cell growth inhibition assay, SKOV-3
# Assay type: cell-based
# MEASUREMENT_CONDITIONS: Homo sapiens, SK-OV-3; SKOV-3; total growth inhibition (cytostatic effect); read-out: TGI SKOV-3

COMPOUND	TARGET_SYSTEM	IC (TGI)
COc1cc(-c2c3c4cc(OC)c(O)cc4oc(=O)c3n3ccc4cc(O)c(OC)cc4c23)ccc1O [Compound 3, lamellarin D, reference compound]	SKOV-3	0.24 µM
COc1cc2c(cc1OC)-c1c(-c3ccc(OC(=O)[C@H](C)NC(=O)OC(C)(C)C)c(OC)c3)c3c4cc(OC)c(OC(=O)[C@H](C)NC(=O)OC(C)(C)C)cc4oc(=O)c3n1CC2	SKOV-3	11.7 µM
COc1cc(-c2c3c4cc(OC)c(OC(=O)[C@@H](N)Cc5ccccc5)cc4oc(=O)c3n3ccc4c(OC(=O)[C@@H](N)Cc5ccccc5)c(OC)c(OC)cc4c23)ccc1OC(=O)[C@@H](N)Cc1ccccc1	SKOV-3	4.22 µM
COc1cc(-c2c3c4cc(OC)c(O)cc4oc(=O)c3n3ccc4cc(OC)c(OC)cc4c23)ccc1O	SKOV-3	5.53 µM
COc1cc(-c2c3c4cc(OC)c(OC(=O)[C@@H]5CCCN5)cc4oc(=O)c3n3ccc4cc(OC(=O)[C@@H]5CCCN5)c(OC)cc4c23)ccc1OC(=O)[C@@H]1CCCN1	SKOV-3	0.228 µM

* * *

# Test system: LoVo
# ASSAY: SRB colorimetric cell growth inhibition assay, LoVo
# Format: cell-based
# MEASUREMENT_CONDITIONS: Homo sapiens, LoVo; total growth inhibition (cytostatic effect); read-out: TGI LOVO
# Protocol: The finality of these assays is to interrupt the growth of an “in vitro” tumor cell culture by means a continued exhibition of the cells to the sample to be testing. A colorimetric type of assay, using sulforhodamine B (SRB) reaction has been adapted for a quantitative measurement of cell growth and viability (following the technique described by P. A. Skehan, et al., J. Natl. Cancer Inst. 1990, 82, 1107-1112). […] The values for mean +/− SD of data from triplicate wells are calculated. […]
Could you please classify the records by IC (TGI) using these ranges: lo = under 800 nM, mid = from 800 nM up to 4000 nM, hi = 4000 nM and over

COMPOUND	CATEGORY_LABEL
COc1cc(-c2c3c4cc(OC)c(OC(=O)[C@H](C)NC(=O)[C@H](C)N)cc4oc(=O)c3n3ccc4c(OC(=O)[C@H](C)NC(=O)[C@H](C)N)c(OC)c(OC)cc4c23)ccc1OC(=O)[C@H](C)NC(=O)[C@H](C)N [Compound 5]	mid
COc1cc2c(cc1OC)-c1c(-c3ccc(OC(=O)CCc4ccccc4)c(OC)c3)c3c4cc(OC)c(OC(=O)CCc5ccccc5)cc4oc(=O)c3n1CC2 [Compound 93]	hi
COc1cc(-c2c3n(c4c(=O)oc5cc(O)c(OC)cc5c24)CCc2c-3cc(OC)c(OC)c2O)ccc1O [Compound 1]	hi
COc1cc2ccn3c(c(-c4ccc(OC(=O)[C@@H](N)Cc5ccccc5)c(OC)c4)c4c5cc(OC)c(OC(=O)[C@@H](N)Cc6ccccc6)cc5oc(=O)c43)c2cc1OC [Compound 18]	mid
COc1cc(-c2c3c4cc(OC)c(OC(=O)[C@@H](N)C(C)C)cc4oc(=O)c3n3ccc4cc(OC(=O)[C@@H](N)C(C)C)c(OC)cc4c23)ccc1OC(=O)[C@@H](N)C(C)C [Compound 195]	lo
COc1cc(-c2c3n(c4c(=O)oc5cc(OC(=O)[C@@H]6CCCN6)c(OC)cc5c24)CCc2cc(OC(=O)[C@@H]4CCCN4)c(OC)cc2-3)ccc1OC(=O)[C@@H]1CCCN1 [Compound 134]	hi
COc1cc(-c2c3c4cc(OC)c(OC(=O)CCC5CCCCC5)cc4oc(=O)c3n3ccc4cc(OC(=O)CCC5CCCCC5)c(OC)cc4c23)ccc1OC(=O)CCC1CCCCC1 [Compound 12]	hi
COc1cc(-c2c3c4cc(OC)c(OC(=O)[C@@H](N)Cc5ccccc5)cc4oc(=O)c3n3ccc4cc(OC(=O)[C@@H](N)Cc5ccccc5)c(OC)cc4c23)ccc1OC(=O)[C@@H](N)Cc1ccccc1 [Compound 204]	lo
COc1cc(-c2c3c4cc(OC)c(OC(=O)CCCCCN)cc4oc(=O)c3n3ccc4cc(OC(=O)CCCCCN)c(OC)cc4c23)ccc1OC(=O)CCCCCN [Compound 169]	lo
COc1cc(-c2c3n(c4c(=O)oc5cc(OC(=O)[C@@H](N)C(C)C)c(OC)cc5c24)CCc2c-3cc(OC)c(OC)c2OC(=O)[C@@H](N)C(C)C)ccc1OC(=O)[C@@H](N)C(C)C [Compound 128]	mid
COc1cc2ccn3c(c(-c4ccc(OC(=O)[C@@H](N)C(C)C)c(OC)c4)c4c5cc(OC)c(OC(=O)[C@@H](N)C(C)C)cc5oc(=O)c43)c2cc1OC [Compound 19]	mid
COc1cc(-c2c3c4cc(OC)c(OC(=O)CCCCCN)cc4oc(=O)c3n3ccc4c(OC(=O)CCCCCN)c(OC)c(OC)cc4c23)ccc1OC(=O)CCCCCN [Compound 193]	mid
COc1cc(-c2c3c4cc(OC)c(OC(=O)[C@H](C)N)cc4oc(=O)c3n3ccc4cc(OC(=O)[C@H](C)N)c(OC)cc4c23)ccc1OC(=O)[C@H](C)N [Compound 199]	lo
COc1cc(-c2c3c4cc(OC)c(OC(=O)[C@@H](N)Cc5ccccc5)cc4oc(=O)c3n3ccc4c(OC(=O)[C@@H](N)Cc5ccccc5)c(OC)c(OC)cc4c23)ccc1OC(=O)[C@@H](N)Cc1ccccc1 [Compound 207]	lo
COc1cc(-c2c3c4cc(OC)c(OC(=O)CCc5ccccc5)cc4oc(=O)c3n3ccc4cc(OC(=O)CCc5ccccc5)c(OC)cc4c23)ccc1OC(=O)CCc1ccccc1 [Compound 8]	hi
COc1cc(-c2c3n(c4c(=O)oc5cc(OC(=O)[C@@H]6CCCN6)c(OC)cc5c24)CCc2c-3cc(OC)c(OC)c2OC(=O)[C@@H]2CCCN2)ccc1OC(=O)[C@@H]1CCCN1 [Compound 118]	mid
COc1cc(-c2c3n(c4c(=O)oc5cc(OC(=O)c6cc(F)c(F)c(F)c6F)c(OC)cc5c24)CCc2c-3cc(OC)c(OC)c2OC(=O)c2cc(F)c(F)c(F)c2F)ccc1OC(=O)c1cc(F)c(F)c(F)c1F [Compound 99]	hi
COc1cc(-c2c3c4cc(OC)c(OC(=O)[C@@H](N)CC(C)C)cc4oc(=O)c3n3ccc4cc(OC(=O)[C@@H](N)CC(C)C)c(OC)cc4c23)ccc1OC(=O)[C@@H](N)CC(C)C [Compound 181]	mid
COc1cc(-c2c3c4cc(OC)c(OC(=O)C[C@H](N)C(C)C)cc4oc(=O)c3n3ccc4cc(OC(=O)C[C@H](N)C(C)C)c(OC)cc4c23)ccc1OC(=O)C[C@H](N)C(C)C [Compound 206]	lo
